# Lookup of reported Population Pyknosed Nuclei (%) keyed by entry
Test system: HEK-293T
METHOD NOTES: Multiplex assay against HEK293T
Format: toxicity, cell-based
CONDITION LABEL: human, 24 h, 1 µM, compound concentration 1 uM, replicate 2

| COMPOUND | ENDPOINT UNIT | Population Pyknosed Nuclei (%) |
| --- | --- | --- |
| OC1(c2ccc(Cl)cc2)CCN(Cc2c[nH]c3ccccc23)CC1 | % | 40 |
| CNCc1ccc(-c2cc(-c3nc(-c4ccc(S(=O)(=O)C(C)C)cc4)cnc3N)on2)cc1 | % | 30 |
| CN1CCN(CCOc2cc(OC3CCOCC3)c3c(Nc4c(Cl)ccc5c4OCO5)ncnc3c2)CC1 | % | 55 |
| COc1cc(-n2cnc3cc(-c4ccc(Cl)cc4)sc3c2=O)ccc1OCCN1CCCC1 | % | 33 |
| CN(C)C(=O)/C(C#N)=C/c1ccc(-c2nc3cnc4[nH]ccc4c3n2C2CCCCC2)o1 | % | 22 |
| C=CC(=O)Nc1ccc2ncnc(Nc3ccc(OCc4cccc(F)c4)c(Cl)c3)c2c1.Cc1ccc(S(=O)(=O)O)cc1 | % | 28 |
| COc1ncc(-c2ccc3nccc(-c4ccnnc4)c3c2)cc1NS(=O)(=O)c1ccc(F)cc1F | % | 79 |
| CN(C)CC#Cc1ccc(OCCCc2sc(N3CCc4cccc(C(=O)Nc5nc6ccccc6s5)c4C3)nc2C(=O)O)c(F)c1 | % | 39 |
| Cn1cc(-c2[nH]c3cc(NC(=O)[C@H](N)C4CCCCC4)cc4c3c2C=NNC4=O)cn1 | % | 67 |
| NC(=O)Nc1cc(-c2cccc(F)c2)sc1C(=O)N[C@H]1CCCNC1 | % | 51 |
| CC[C@H](C)C(=O)O[C@H]1C[C@@H](C)C=C2C=C[C@H](C)[C@H](CC[C@@H]3C[C@@H](O)CC(=O)O3)[C@H]21 | % | 30 |
| O=C1NCN(c2ccccc2)C12CCN(CCCOc1ccc(F)cc1)CC2 [SPIRAMIDE] | % | 30 |
| Cc1[nH]c(/C=C2\C(=O)Nc3ccc(S(=O)(=O)N(C)c4cccc(Cl)c4)cc32)c(C)c1C(=O)N1CCN(C)CC1 | % | 38 |
| CN1CCCC(n2nc(Cc3ccc(Cl)cc3)c3ccccc3c2=O)CC1.Cl (stereo unspecified) [AZELASTINE HYDROCHLORIDE] | % | 43 |
| Cc1nc(Nc2n[nH]c3c2CN(C(=O)N[C@H](CN(C)C)c2ccccc2)C3(C)C)c2sccc2n1 | % | 6 |
| C[C@@]1(C(=O)Nc2ccc(F)nc2)CCCN1c1nc(Nc2cc(C3CC3)n[nH]2)c2cccn2n1 | % | 13 |

* * *

Test system: U2OS
METHOD NOTES: Multiplex assay against U2OS
Format: toxicity, cell-based
CONDITION LABEL: human, 48 h, 10 µM, compound concentration 10 uM, replicate 2
So basically: Population Mitotic Cells (%) at 20% or higher? That is condition met. Lower than 20%? That is condition not met.

| MOLECULE | TARGET | ASSIGNED LABEL |
| --- | --- | --- |
| NC(=O)Nc1cc(-c2cccc(F)c2)sc1C(=O)N[C@H]1CCCNC1 [AZD-7762] | U2OS | condition not met |
| COc1cc2nccc(Oc3ccc(NC(=O)Nc4cc(C)on4)c(Cl)c3)c2cc1OC.O | U2OS | condition not met |
| Cn1cc(-c2[nH]c3cc(NC(=O)[C@H](N)C4CCCCC4)cc4c3c2C=NNC4=O)cn1 | U2OS | condition not met |
| Cl.N#Cc1ccc2[nH]cc(CCCCN3CCN(c4ccc5oc(C(N)=O)cc5c4)CC3)c2c1 [VILAZODONE HYDROCHLORIDE] | U2OS | condition not met |
| c1cn2cc(-c3ccc4cn[nH]c4c3)nc(Nc3ccc(N4CCOCC4)cc3)c2n1 [ENTOSPLETINIB] | U2OS | condition not met |
| CC[C@H](C)C(=O)O[C@H]1C[C@@H](C)C=C2C=C[C@H](C)[C@H](CC[C@@H]3C[C@@H](O)CC(=O)O3)[C@H]21 [LOVASTATIN] | U2OS | condition met |
| CN1CCC[C@@H]1CCO[C@](C)(c1ccccc1)c1ccc(Cl)cc1.O=C(O)/C=C/C(=O)O [CLEMASTINE FUMARATE] | U2OS | condition met |

* * *

Tested on: Fibroblast
METHOD NOTES: Multiplex assay against human fibroblast
Assay type: toxicity, cell-based
CONDITION LABEL: 24 h, 1 µM, compound concentration 1 uM, replicate 1
So basically: Total Cell Count at 200 or higher? That is rule met. Lower than 200? That is rule not met.

| MOLECULE | ASSIGNED LABEL |
| --- | --- |
| NC(=O)Nc1cc(-c2cccc(F)c2)sc1C(=O)N[C@H]1CCCNC1 [AZD-7762] | rule met |
| CC(C)(O)CNc1ncc(-c2ccnc(Nc3ccnc(Cl)c3)n2)c(CC2CC2)n1 | rule not met |
| Cn1cc(-c2[nH]c3cc(NC(=O)[C@H](N)C4CCCCC4)cc4c3c2C=NNC4=O)cn1 | rule not met |
| CNc1nc(NCc2ccc(NS(C)(=O)=O)cc2Cl)cc(-c2ccccn2)n1 | rule not met |
| CCN(CC)CCCCNc1ncc2cc(-c3cc(OC)cc(OC)c3)c(NC(=O)NC(C)(C)C)nc2n1 [PD-173074] | rule met |
| COc1cc(-n2cnc3cc(-c4ccc(Cl)cc4)sc3c2=O)ccc1OCCN1CCCC1 | rule not met |
| OC1(c2ccc(Cl)cc2)CCN(Cc2c[nH]c3ccccc23)CC1 | rule not met |
| C[C@@H](NCCCc1cccc(C(F)(F)F)c1)c1cccc2ccccc12.Cl [CINACALCET HYDROCHLORIDE] | rule not met |
| CC(C)NCC(O)COc1ccc(CCOCC2CC2)cc1.Cl (configuration not stated) [BETAXOLOL HYDROCHLORIDE] | rule not met |
| C=CC(=O)Nc1ccc2ncnc(Nc3ccc(OCc4cccc(F)c4)c(Cl)c3)c2c1.Cc1ccc(S(=O)(=O)O)cc1 | rule not met |
| Cc1cc(C)cc(-c2cnc3cc(Cl)c(-c4cccc(O)c4)cc3c2OCCCN)c1 | rule not met |
| Cl.N#Cc1ccc2[nH]cc(CCCCN3CCN(c4ccc5oc(C(N)=O)cc5c4)CC3)c2c1 [VILAZODONE HYDROCHLORIDE] | rule not met |
| Cc1nc(-c2cn3c(n2)-c2ccc(-c4cnn(C(C)(C)C(N)=O)c4)cc2OCC3)n(C(C)C)n1 [TASELISIB] | rule met |
| CC[C@H](C)C(=O)O[C@H]1C[C@@H](C)C=C2C=C[C@H](C)[C@H](CC[C@@H]3C[C@@H](O)CC(=O)O3)[C@H]21 [LOVASTATIN] | rule not met |
| O=C1NCN(c2ccccc2)C12CCN(CCCOc1ccc(F)cc1)CC2 [SPIRAMIDE] | rule not met |
| Cc1nc(Nc2n[nH]c3c2CN(C(=O)N[C@H](CN(C)C)c2ccccc2)C3(C)C)c2sccc2n1 [PF-03758309] | rule not met |
| Cc1csc2c(N[C@@H](C)CN3CCN(S(=O)(=O)c4ccc(Cl)c(Cl)c4)CC3)ncnc12 | rule not met |

* * *

Tested on: Fibroblast
METHOD NOTES: Multiplex assay against human fibroblast
Format: toxicity, cell-based
CONDITION LABEL: 12 h, 1 µM, compound concentration 1 uM, replicate 2
So basically: Population Tubulin-Different-Phenotype (%) at 20% or higher? That is MET. Lower than 20%? That is NOT MET.

| COMPOUND | TARGET | ASSIGNED LABEL |
| --- | --- | --- |
| Cc1nc(-c2ccc(-c3ccc(C(=O)N4CCc5cc6c(cc54)C4(CCN(C)CC4)CO6)cc3)c(C)c2)no1 [SB-224289] | Fibroblast | MET |
| CN(C)C(=O)N[C@H]1CC[C@H](CCN2CCN(c3cccc(Cl)c3Cl)CC2)CC1.Cl [CARIPRAZINE HYDROCHLORIDE] | Fibroblast | MET |
| CN1CCN(c2ccc(OC(F)(F)F)c(Nc3ncc4c(n3)-c3c(c(C(N)=O)nn3CCO)CC4)c2)CC1 [ONVANSERTIB] | Fibroblast | NOT MET |
| C=CC(=O)Nc1cccc(C(=O)Nc2ccc(Nc3cc(-c4[nH]c(SC)nc4C)ccn3)cc2)c1 | Fibroblast | MET |
| CN1CCC[C@@H]1CCO[C@](C)(c1ccccc1)c1ccc(Cl)cc1.O=C(O)/C=C/C(=O)O [CLEMASTINE FUMARATE] | Fibroblast | NOT MET |
| CN1CCN(CCOc2cc(OC3CCOCC3)c3c(Nc4c(Cl)ccc5c4OCO5)ncnc3c2)CC1 [SARACATINIB] | Fibroblast | NOT MET |
| CC(C)NCC(O)COc1ccc(CCOCC2CC2)cc1.Cl (configuration not stated) [BETAXOLOL HYDROCHLORIDE] | Fibroblast | NOT MET |
